System: symmetrical dimethylation of arginine (Di-Methyl Histone H4 Arginine 3) in cell line TE11
EXPERIMENT NOTES: PRMT5 Biomarker Assay
Type: cell-based
REPORTED CONDITIONS: Homo sapiens, TE-11; TE11 cells, 72 hours incubation, mean Alexa647-related intensity per cell
pIC50: −log10 of the molar value. Structures can show the parent of a compound that is named as a salt.
The threshold is inclusive: pIC50 of exactly 8 counts as T; values below receive F.

INSERT INTO results (compound, category_label) VALUES
  ('CCOc1nc(N2CCN(C(=O)OC)CC2)ccc1C(=O)NC[C@@H](O)[C@@H]1Cc2ccccc2CN1 [Example 1, dihydrochloride]', 'T'),
  ('CCOc1c(C(=O)NC[C@@H](O)[C@@H]2Cc3ccccc3CN2)ccnc1NC1CCN(C(C)=O)CC1 [Example 8, Dihydrochloride Salt]', 'F'),
  ('CCOc1nc(N2CCCOCC2)ccc1C(=O)NC[C@@H](O)[C@@H]1Cc2ccccc2CN1 [Example 3, dihydrochloride]', 'T'),
  ('CCOc1nc(N2CCC(O)CC2)ccc1C(=O)NC[C@@H](O)[C@@H]1Cc2ccccc2CN1 [Example 2, dihydrochloride]', 'F'),
  ('CCOc1nc(N2CCOCC2)ccc1C(=O)NC[C@@H](O)[C@@H]1Cc2ccccc2CN1 [Example 9]', 'F'),
  ('CCOc1nc(N2CCN(C(C)=O)CC2)ccc1C(=O)NC[C@@H](O)[C@@H]1Cc2ccccc2CN1 [Example 4, dihydrochloride]', 'T'),
  ('CCOc1cnc(CC2CCN(C(C)=O)CC2)cc1C(=O)NC[C@@H](O)[C@@H]1Cc2ccccc2CN1 [Example 6, dihydrochloride]', 'F');

---

Recorded pIC50 by entry
ASSAYED SYSTEM: Full-length PRMT5 enzyme co-expressed with His6-MEP50 (Homo sapiens (Human), UniProt O14744)
Sequence (O14744 whole entry): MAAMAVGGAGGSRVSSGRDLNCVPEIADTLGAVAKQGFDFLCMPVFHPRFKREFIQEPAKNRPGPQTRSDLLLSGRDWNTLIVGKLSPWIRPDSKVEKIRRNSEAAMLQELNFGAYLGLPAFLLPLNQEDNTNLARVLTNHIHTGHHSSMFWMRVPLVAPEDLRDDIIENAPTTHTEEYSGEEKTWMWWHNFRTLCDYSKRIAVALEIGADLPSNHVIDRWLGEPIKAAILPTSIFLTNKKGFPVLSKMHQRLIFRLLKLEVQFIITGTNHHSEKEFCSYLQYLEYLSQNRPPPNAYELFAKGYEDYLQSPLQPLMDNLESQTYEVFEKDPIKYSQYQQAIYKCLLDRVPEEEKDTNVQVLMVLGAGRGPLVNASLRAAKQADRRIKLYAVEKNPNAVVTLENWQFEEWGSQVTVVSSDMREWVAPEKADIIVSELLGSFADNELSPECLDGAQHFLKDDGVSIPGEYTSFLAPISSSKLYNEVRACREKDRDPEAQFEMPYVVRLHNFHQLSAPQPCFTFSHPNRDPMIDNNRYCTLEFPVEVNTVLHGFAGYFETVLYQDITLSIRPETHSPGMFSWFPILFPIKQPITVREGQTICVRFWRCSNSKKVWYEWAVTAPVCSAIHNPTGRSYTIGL
Sequence (Q9BQA1 whole entry partner): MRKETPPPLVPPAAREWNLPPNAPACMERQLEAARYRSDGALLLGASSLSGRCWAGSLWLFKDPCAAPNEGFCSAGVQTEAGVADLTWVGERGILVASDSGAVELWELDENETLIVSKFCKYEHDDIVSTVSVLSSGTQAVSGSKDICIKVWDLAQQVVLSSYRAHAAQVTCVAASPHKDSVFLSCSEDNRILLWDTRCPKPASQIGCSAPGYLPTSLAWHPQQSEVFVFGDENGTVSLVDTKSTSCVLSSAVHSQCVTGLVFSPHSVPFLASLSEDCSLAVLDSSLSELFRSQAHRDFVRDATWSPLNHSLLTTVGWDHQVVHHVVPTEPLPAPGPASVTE
pIC50: −log10 of the molar value. Counter-ions that a name gives are not always drawn.
OBSERVATION TYPE: pIC50

INSERT INTO results (compound, experimental_result) VALUES
  ('CCOc1nc(N2CCN(C(C)=O)CC2)ccc1C(=O)NC[C@@H](O)[C@@H]1Cc2ccccc2CN1 [Example 4, dihydrochloride]', 7.59),
  ('CCOc1nc(N2CCN(C(=O)OC)CC2)ccc1C(=O)NC[C@@H](O)[C@@H]1Cc2ccccc2CN1 [Example 1, dihydrochloride]', 7.43),
  ('CCOc1cnc(CC2CCN(C(C)=O)CC2)cc1C(=O)NC[C@@H](O)[C@@H]1Cc2ccccc2CN1 [Example 6, dihydrochloride]', 6.69),
  ('CCOc1c(C(=O)NC[C@@H](O)[C@@H]2Cc3ccccc3CN2)ccnc1NC1CCN(C(C)=O)CC1 [Example 8, Dihydrochloride Salt]', 6.87),
  ('CC(=O)N1CCC(Oc2nccc(C(=O)NC[C@@H](O)[C@@H]3Cc4ccccc4CN3)c2Cl)CC1 [Example 5, dihydrochloride]', 7.59),
  ('CCOc1nc(N2CCC(O)CC2)ccc1C(=O)NC[C@@H](O)[C@@H]1Cc2ccccc2CN1 [Example 2, dihydrochloride]', 6.99),
  ('CCOc1nc(N2CCCOCC2)ccc1C(=O)NC[C@@H](O)[C@@H]1Cc2ccccc2CN1 [Example 3, dihydrochloride]', 7.15),
  ('CCOc1nc(OC2CCN(C(C)=O)CC2)ccc1C(=O)NC[C@@H](O)[C@@H]1Cc2ccccc2CN1 [Example 7, hydrochloride salt]', 6.87),
  ('CCOc1nc(N2CCOCC2)ccc1C(=O)NC[C@@H](O)[C@@H]1Cc2ccccc2CN1', 6.60);
